# ASSAY_PROCEDURE: in vivo
# TEST_SETTINGS: mouse
OBSERVATION_TYPE: half-life

What does the record list as half-life for CC(C)N1CCN(c2ccc(Nc3ncc4cc5n(c4n3)C3(CCCCC3)CNC5=O)nc2)CC1.Cl.Cl [G1T38] ?
2.4 to 5.1 h

---

# Tested on: WM2664 cells
# ASSAY_PROCEDURE: Cell cycle analysis (propidium iodide, flow cytometry)
# Assay type: cell-based
# TEST_SETTINGS: Homo sapiens, WM 266-4; WM2664 cells, text of discussion; read-out: EC50 of G1 arrest
# Method: Next, we assessed the ability of G1T38 to elicit a G1 arrest in normal and tumorigenic CDK4/6-dependent (HS68, WM2664, respectively) and -independent tumorigenic (A2058) cell lines. […] In CDK4/6 independent cells, the compound had no effect on the percentage of S-phase cells (as shown by arrow in Supplementary Figure 1). A dose dependent increase of cells in the G1 phase of the cell cycle was observed when CDK4/6 dependent WM2664 cells were treated with G1T38 for 24 hours (Figure 1C). […]
OBSERVATION_TYPE: EC50 (nM)
Write it as a number; the unit nM goes unstated.

What does the record list as EC50 for CC(C)N1CCN(c2ccc(Nc3ncc4cc5n(c4n3)C3(CCCCC3)CNC5=O)nc2)CC1.Cl.Cl ?
20
